molecular target: human PAI-1 (human, UniProt P05121 24-402); assay: cell-based or functional assay
Sequence (P05121 24-402 limits assumed): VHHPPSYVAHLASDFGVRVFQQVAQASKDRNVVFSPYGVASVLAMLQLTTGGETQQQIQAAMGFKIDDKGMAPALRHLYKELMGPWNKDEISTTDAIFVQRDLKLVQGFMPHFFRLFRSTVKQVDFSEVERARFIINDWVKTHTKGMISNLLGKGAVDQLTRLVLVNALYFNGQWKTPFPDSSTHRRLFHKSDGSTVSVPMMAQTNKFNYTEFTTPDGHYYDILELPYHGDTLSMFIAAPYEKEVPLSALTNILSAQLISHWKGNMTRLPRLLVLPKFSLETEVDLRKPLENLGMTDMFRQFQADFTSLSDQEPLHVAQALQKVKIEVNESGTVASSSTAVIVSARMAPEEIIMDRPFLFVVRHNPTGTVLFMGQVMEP
ENDPOINT: Chromogenic Assay IC50 (nM)
Give bare numbers, in nM.

[[record]]
binder = "A44-hv6 (antibody, V domains shown, humanized A44, HEK293; constant regions as for A44-hv1; also called LC3 x HC3; variant 6) VH: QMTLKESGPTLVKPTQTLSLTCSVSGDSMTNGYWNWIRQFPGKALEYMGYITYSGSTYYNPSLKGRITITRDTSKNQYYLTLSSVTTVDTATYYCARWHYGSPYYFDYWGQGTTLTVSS VL: DIKMTQSPSSLSASVGDRVTITCKASQDINSYLSWLQQKPGKSPKTLIYRANRSVDGVPSRFSGSGSGQDYSLTISSLQPEDLATYYCLQYDEFPPTFGGGTKLEIK"
recorded_number = 0.82

[[record]]
binder = "A44-hv8 (antibody, V domains shown) VH: QVQLQESGPGLVKPSETLSLTCTVSGDSMTNGYWNWIRQPPGKGLEYMGYITYSGSTYYNPSLKSRITISRNTSKNQYSLKLSSVTAADTAVYYCARWHYGSPYYFDYWGQGTLVTVSS VL: DIQMTQSPSSLSASVGDRVTITCKASQDINSYLSWLQQKPGKAPKLLIYRANRSVDGVPSRFSGSGSGTDYTFTISSLQPEDIATYYCLQYDEFPPTFGGGTKVEIK"
recorded_number = 0.76

[[record]]
binder = "A44-hv5 (antibody, V domains shown, humanized A44, HEK293; constant regions as for A44-hv1; also called LC2 x HC2b; variant 5) VH: EMTLKESGPTLVKPTQTLSLTCSVTGDSMTQGYWNWIRKFPGKALEYMGYITYSGSTYYNPSLKGRISITRNTSKNQYYLTLSSVTTVDTATYYCARWHYGSPYYFDYWGQGTTLTVSS VL: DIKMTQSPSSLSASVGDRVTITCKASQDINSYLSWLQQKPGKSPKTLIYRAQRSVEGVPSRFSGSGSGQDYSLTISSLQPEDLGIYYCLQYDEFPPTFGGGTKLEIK"
recorded_number = 1.11


For every listed record, write down its Chromogenic Assay IC50.
1. A44-hv2 (antibody, V domains shown, humanized A44, HEK293; constant regions as for A44-hv1; also called LC1b x HC1b; variant 2) VH: EMQLQESGPGLVKPSETLSLTCSVTGDSMTNGYWNWIRKFPGKGLEYMGYITYSGSTYYNPSLKGRISITRNTSKNQYYLKLSSVTTADTATYYCARWHYGSPYYFDYWGQGTTLTVSS VL: DIKMTQSPSSVSVSPGQTVTITCKASQDINSYLSWLQQKPGQSPKTLIYRANRSVDGVPSRFSGSGSGQDYSLTISSLQAMDEGIYYCLQYDEFPPTFGGGTKLTIK
2. A44 (antibody, mouse IgG1, V domains shown, mouse IgG1/kappa; also called mA44; A44 parental) VH: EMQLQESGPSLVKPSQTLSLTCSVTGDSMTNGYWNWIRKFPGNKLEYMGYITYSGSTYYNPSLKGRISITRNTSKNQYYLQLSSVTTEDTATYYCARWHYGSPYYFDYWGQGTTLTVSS VL: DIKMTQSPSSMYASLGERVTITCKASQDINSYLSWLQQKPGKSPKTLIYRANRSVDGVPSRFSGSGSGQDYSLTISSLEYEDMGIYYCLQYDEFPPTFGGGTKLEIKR
3. A44-hv4 (antibody, V domains shown, humanized A44, HEK293; constant regions as for A44-hv1; also called LC1a x HC2b; variant 4) VH: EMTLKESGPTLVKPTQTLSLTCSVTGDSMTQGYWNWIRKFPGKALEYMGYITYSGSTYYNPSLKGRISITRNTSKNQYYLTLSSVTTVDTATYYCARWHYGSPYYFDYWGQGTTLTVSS VL: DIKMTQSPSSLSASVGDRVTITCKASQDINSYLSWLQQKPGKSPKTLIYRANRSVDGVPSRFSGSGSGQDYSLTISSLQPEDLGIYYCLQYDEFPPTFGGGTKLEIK
4. A44-hv7 (antibody, V domains shown, humanized A44, HEK293; constant regions as for A44-hv1; also called LC4 x HC4; variant 7) VH: QMTLKESGPTLVKPTQTLSLTCSVSGESMTQGYWNWIRQFPGKALEYMGYITYSGSTYYNPSLKGRITITRQTSKNQYYLTLSSVTTVETATYYCARWHYGSPYYFDYWGQGTTLTVSS VL: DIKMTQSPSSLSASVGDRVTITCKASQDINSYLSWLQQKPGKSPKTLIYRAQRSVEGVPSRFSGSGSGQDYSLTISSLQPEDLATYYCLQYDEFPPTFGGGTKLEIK

1. 0.6
2. 0.44
3. 0.52
4. 0.59
